Recorded values, source the supplement of paper PMC13380429.

tested on: Caco-2; assay: cell viability relative to DMSO; higher = less toxic; settings: 72 h; 10 nM
quantity-kind: cell viability (%)
Please respond with the number in % and leave the unit unwritten.

Sample answers from the record:
1) COc1ccc(S(=O)(=O)N2c3ccc(Cl)cc3[C@](O)(c3ccccc3Cl)[C@@H]2C(=O)N2CCC[C@H]2C(N)=O)cc1OC ... 102
2) Cc1ccc(=O)n(-c2ccccc2)c1 ... 93.6
3) CC(C)N(C[C@H]1O[C@@H](n2cnc3c(N)ncnc32)[C@H](O)[C@@H]1O)[C@H]1C[C@@H](CCc2nc3cc(C(C)(C)C)ccc3[nH]2)C1 ... 99.2

Name the recorded cell viability of the compound listed here: CCCCCCCCCCC(=O)O[C@H]1CC[C@H]2[C@@H]3CCC4=CC(=O)CC[C@]4(C)[C@H]3CC[C@]12C [Testosterone (undecanoate)]
92.9
